pIC50 by entry:
test system: Mes-Sa/Dx5; assay: Cytotoxicity, doxorubicin-selected MDR uterine sarcoma line; type: cell-based; conditions: Mes-Sa/Dx5 (doxorubicin selected, ABCB1 expressing), fluorescent protein intensity after 144 h
# reply with the number alone; pIC50 is -log10 of concentration in mol/L

compound	pIC50
Cc1c(C)n(Cc2ccccc2)[c](=[Cu][Cl])n1Cc1ccccc1 [Cu-LA]	4.12
N.N.[Cl][Pt][Cl] [Cisplatin, cisplatin, reference compound]	5.33

## Input Annotate the compound Cc1c(C)n(Cc2ccccc2)[c](=[Ag][Cl])n1Cc1ccccc1 [Ag-LA] with its measured pIC50.
## Output 4.92

## Input Quote pIC50 reported for CC(=O)OC[C@H]1O[C@@H]([S-])[C@H](OC(C)=O)[C@@H](OC(C)=O)[C@@H]1OC(C)=O.CCP(CC)CC.[Au+] [Auranofin, auranofin, reference compound] please.
## Output 5.85

## Input State its pIC50: Cc1c(C)n(Cc2ccccc2)[c](=[Au][Cl])n1Cc1ccccc1 [Au-LA]
## Output 4.87
